These entries and their values trace back to patent US20210402016A1.

# protocol.details: Biodistribution in PC-3 tumor-bearing NSG mice (Example 2)
# Assay type: in vivo
# assay.context: male, NSG (NOD.Cg-Prkdc^scid Il2rg^tm1Wjl/SzJ), mouse, tumor/liver, iv, total radioactivity, 60 MIN BLOCKED, co-injection of 100 μg of [D-Phe^6,Leu-NHEt^13,des-Met^14]Bombesin(6-14); read-out: TUMOR-TO-LIVER ratio, Mean

compound: CC(C)C[C@@H](CN1CCC[C@H]1C(N)=O)NC(=O)[C@H](Cc1c[nH]cn1)NC(=O)CNC(=O)[C@@H](NC(=O)[C@H](C)NC(=O)[C@H](Cc1c[nH]c2ccccc12)NC(=O)[C@H](CCC(N)=O)NC(=O)[C@@H](Cc1ccccc1)NC(=O)CN1CCC(NC(=O)CN2CCN(CC(=O)O)CCN(CC(=O)O)CCN(CC(=O)O)CC2)CC1)C(C)C [^68Ga-ProBOMB2, metal not drawn]
tissue to tissue ratio at 1 h: 7.33

----------
# protocol.details: Biodistribution in PC-3 tumor-bearing NRG mice (Example 1)
# Type: in vivo
# assay.context: male, NRG (NOD.Cg-Rag1tm1Mom Il2rgtm1Wjl/SzJ), mouse, bone, iv, 1.84 MBq, total radioactivity; 60 min p.i.; read-out: Biodistribution Bone, Mean

molecule: CC(C)C[C@@H](CN1CCC[C@H]1C(N)=O)NC(=O)[C@H](Cc1c[nH]cn1)NC(=O)CNC(=O)[C@@H](NC(=O)[C@H](C)NC(=O)[C@H](Cc1c[nH]c2ccccc12)NC(=O)[C@H](CCC(N)=O)NC(=O)[C@@H](Cc1ccccc1)NC(=O)COCC(=O)Nc1ccc(CNC(=O)CN2CCN(CC(=O)O)CCN(CC(=O)O)CCN(CC(=O)O)CC2)cc1)C(C)C [^68Ga-ProBOMB1, metal not drawn]
tissue uptake at 1 h / %ID/g: 0.26

----------
# protocol.details: Biodistribution in PC-3 tumor-bearing NRG mice (Example 1)
# Assay type: in vivo
# assay.context: male, NRG (NOD.Cg-Rag1tm1Mom Il2rgtm1Wjl/SzJ), mouse, liver, iv, 1.84 MBq, total radioactivity; 30 min p.i.; read-out: Biodistribution Liver, Mean

compound: CC(C)C[C@@H](CN1CCC[C@H]1C(N)=O)NC(=O)[C@H](Cc1c[nH]cn1)NC(=O)CNC(=O)[C@@H](NC(=O)[C@H](C)NC(=O)[C@H](Cc1c[nH]c2ccccc12)NC(=O)[C@H](CCC(N)=O)NC(=O)[C@@H](Cc1ccccc1)NC(=O)COCC(=O)Nc1ccc(CNC(=O)CN2CCN(CC(=O)O)CCN(CC(=O)O)CCN(CC(=O)O)CC2)cc1)C(C)C [^68Ga-ProBOMB1, metal not drawn]
output.unit: %ID/g
tissue uptake at 0.5 h: 1.93

----------
# protocol.details: Biodistribution in PC-3 tumor-bearing NRG mice (Example 1)
# Type: in vivo
# assay.context: male, NRG (NOD.Cg-Rag1tm1Mom Il2rgtm1Wjl/SzJ), mouse, brain, iv, 1.84 MBq, total radioactivity; 120 min p.i.; read-out: Biodistribution Brain, Mean
metric: tissue uptake at 2 h (%ID/g)

molecule: CC(C)C[C@@H](CN1CCC[C@H]1C(N)=O)NC(=O)[C@H](Cc1c[nH]cn1)NC(=O)CNC(=O)[C@@H](NC(=O)[C@H](C)NC(=O)[C@H](Cc1c[nH]c2ccccc12)NC(=O)[C@H](CCC(N)=O)NC(=O)[C@@H](Cc1ccccc1)NC(=O)COCC(=O)Nc1ccc(CNC(=O)CN2CCN(CC(=O)O)CCN(CC(=O)O)CCN(CC(=O)O)CC2)cc1)C(C)C [^68Ga-ProBOMB1, metal not drawn]
metric: tissue uptake at 2 h
output.unit: %ID/g
recorded.measurement: 0.03
